Target: T1, Flag-PTHR1-YFP (parathyroid hormone receptor 1) expressed in transfected HEK293T cells (human, UniProt Q03431 27-593)
T1 sequence (looked up): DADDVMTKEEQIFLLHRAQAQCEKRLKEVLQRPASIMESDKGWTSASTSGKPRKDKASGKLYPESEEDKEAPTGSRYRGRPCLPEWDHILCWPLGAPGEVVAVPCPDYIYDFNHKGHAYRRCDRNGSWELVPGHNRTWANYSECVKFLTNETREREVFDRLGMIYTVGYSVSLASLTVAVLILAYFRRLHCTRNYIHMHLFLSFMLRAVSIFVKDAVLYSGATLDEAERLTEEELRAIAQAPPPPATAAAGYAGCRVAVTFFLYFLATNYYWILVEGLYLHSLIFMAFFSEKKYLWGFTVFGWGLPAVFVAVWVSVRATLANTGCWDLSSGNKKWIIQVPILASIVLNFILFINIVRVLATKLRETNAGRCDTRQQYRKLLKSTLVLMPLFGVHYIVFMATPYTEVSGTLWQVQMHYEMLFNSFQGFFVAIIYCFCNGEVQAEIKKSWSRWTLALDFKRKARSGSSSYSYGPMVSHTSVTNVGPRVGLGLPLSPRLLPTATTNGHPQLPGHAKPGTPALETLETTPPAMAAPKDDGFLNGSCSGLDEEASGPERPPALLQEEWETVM
Experiment: cell-based or functional assay
READOUT: arrestin 1, plate 25: Emax
Please respond with just the number, no unit label.

Request: // arrestin 1, plate 25: Emax lookup, key: GIAVITLMLLRAYLELLEELVKILHELLRRYH [R2-52]
Response: 6.37

Request: Please give the measured arrestin 1, plate 25: Emax for this binder: AVAEIQLMHQRAKWELEFELFREFLKLLVDFF [I3 (R1-97)]
Response: 10.3

Request: Suppose we examine the binder GVAMLQIMHDLAKIKQELELKDSMKKILEDVL [R2-50] ; what arrestin 1, plate 25: Emax value has been reported?
Response: 6.47

Request: Report arrestin 1, plate 25: Emax for GIAVITLMVLRALLELQEIGRKITLELLKEYI [R2-51] please.
Response: 12.5
